# experimental-system: T1, mouse EGFL7 (mEGFL7-CB-His) (mouse, UniProt Q9QXT5 22-275)
# T1 sequence: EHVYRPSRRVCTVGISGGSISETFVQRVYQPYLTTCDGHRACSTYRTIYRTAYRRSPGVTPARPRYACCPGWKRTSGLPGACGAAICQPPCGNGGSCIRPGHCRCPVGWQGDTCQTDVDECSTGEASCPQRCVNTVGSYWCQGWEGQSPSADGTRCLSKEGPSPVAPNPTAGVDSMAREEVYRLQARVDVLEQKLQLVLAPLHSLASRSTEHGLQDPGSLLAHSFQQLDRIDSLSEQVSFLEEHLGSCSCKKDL
# assay-summary: SPR (Biacore), IgG over immobilized mEGFL7-CB at 37 C;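 also: IgG injected as twofold series from 0.5 to 1000 nM, 3 min association and 3.5 min dissociation, reference flow cell subtracted, kinetics fitted to 1:1 Langmuir model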
metric: koff (s⁻¹)
Report as a plain number; the unit s⁻¹ is understood.

// field: koff; key: 18F7.v7 IgG (antibody, V domains shown, IgG; Kabat numbering) VH: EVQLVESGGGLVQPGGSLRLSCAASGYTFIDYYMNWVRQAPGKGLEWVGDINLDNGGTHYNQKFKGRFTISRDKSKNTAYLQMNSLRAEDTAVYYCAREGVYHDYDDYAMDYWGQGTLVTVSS VL: DIQMTQSPSSLSASVGDRVTITCRTSQSLVHINGITYLHWYQQKPGKAPKLLIYRVSNRFSGVPSRFSGSGSGTDFTLTISSLQPEDFATYYCAQSTHVPLTFGQGTKVEIK ; value = 9.58e-05

// field: koff; key: 18F7.v6 IgG (antibody, V domains shown, IgG; also called hu18F7.v6) VH: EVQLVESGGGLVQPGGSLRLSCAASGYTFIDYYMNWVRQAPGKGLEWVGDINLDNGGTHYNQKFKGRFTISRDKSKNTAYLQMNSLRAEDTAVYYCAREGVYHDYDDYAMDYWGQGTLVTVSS VL: DIQMTQSPSSLSASVGDRVTITCRTSQSLVHINGITYLHWYQQKPGKAPKLLIYRVSNRFSGVPSRFSGSGSGTDFTLTISSLQPEDFATYYCGQSTHVPLTFGQGTKVEIKR ; value = 2.04e-05

// field: koff; key: 18F7.v2 IgG (antibody, name in Kabat numbering, V domains shown, IgG; Kabat numbering; also called 18F7-K) VH: EVQLVESGGGLVQPGGSLRLSCAASGYTFIDYYMNWVRQAPGKGLEWVGDINLDNGGTHYNQKFKGRFTISRDKSKNTLYLQMNSLRAEDTAVYYCAREGVYHDYDDYAMDYWGQGTLVTVSS VL: DIQMTQSPSSLSASVGDRVTITCRTSQSLVHINGITYLHWYQQKPGKAPKLLIYRVSNRFSGVPSRFSGSGSGTDFTLTISSLQPEDFATYYCSQSTHVPLTFGQGTKVEIKR ; value = 0.000198

// field: koff; key: 18F7.v5 IgG (antibody, V domains shown, IgG; Kabat numbering) VH: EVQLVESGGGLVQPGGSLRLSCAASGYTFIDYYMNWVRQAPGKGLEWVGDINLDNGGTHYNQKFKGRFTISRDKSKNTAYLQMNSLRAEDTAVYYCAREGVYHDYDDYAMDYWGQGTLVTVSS VL: DIQMTQSPSSLSASVGDRVTITCRTSQSLVHINGITYLHWYQQKPGKAPKLLIYRVSNRGSGVPSRFSGSGSGTDFTLTISSLQPEDFATYYCSQSTHVPLTFGQGTKVEIK ; value = 0.000117
